system: KB-3-1; experiment: Cytotoxic Profiling of Annotated Libraries Using Quantitative High-Throughput Screening (AID 1296008); conditions: Five cell lines viability, CellTiter-Glo ATP luminescence, 48-72 h; active compounds read low; further: on the % scale 0 is the no-effect control and ±100 the full control effect; nearly all actives have a fitted effect of over 60% in size
Inconclusive results are not listed.
recorded_endpoint: max response (%)
Give a bare numeral; the unit % is implied.

Example results:
compound	system_under_test	val
CCCCCCCCCCCCCCCCCC(=O)OCC(O)CO (stereo unspecified)	KB-3-1	-3.37
CCCN1CCCC[C@H]1C(=O)Nc1c(C)cccc1C	KB-3-1	-10
Nc1ccc(C(=O)Nc2ccccc2N)cc1	KB-3-1	-27.7

**Q:** Quick check: max response on KB-3-1, item `CCCCCC=CCC=CCCCCCCCC(=O)OCC` ?
**A:** -4.13

**Q:** Would you kindly repeat that for CCOc1ccc(NC(=O)CC(C)O)cc1 (stereo unspecified) ?
**A:** -22.8

**Q:** Please answer likewise for `CCCC(=O)O[C@]1(C(=O)CO)CC[C@H]2[C@@H]3CCC4=CC(=O)CC[C@]4(C)[C@H]3[C@@H](O)C[C@@]21C`
**A:** 1.39

* * *

test: qHTS of pediatric cancer cell lines to identify multiple opportunities for drug repurposing: Primary screen for A673 cells (AID 1347092); details: A673 Ewing sarcoma viability, CellTiter-Glo ATP luminescence, 48 h; series mostly up to 46 µM; further: nearly all actives have a fitted effect of over 45% in size
Results filed as inconclusive are left out. Active and inactive are the calls of the source. The call rests on the fitted dose curve; in most records, active means well fitted cell-killing curve with a large enough effect; inconclusive means small, poorly fitted or top-dose-only effect; inactive means no such curve, though single readings can be large or run the other way.
Parameter call: string, one of class 1 for active, class 0 for inactive

Worked examples, 5 compounds total:
compound	class_assignment
CCCCC(=O)O[C@]1(C(=O)CO)CC[C@H]2[C@@H]3CCC4=CC(=O)CC[C@]4(C)[C@H]3[C@@H](O)C[C@@]21C	class 0
CCCCN1CCCC1C(=O)Nc1c(C)cc(C)cc1C (stereo not given)	class 0
CN(C)CCOc1ccccc1Cc1ccccc1	class 0
COc1cccc(OC)c1C(=O)N[C@@H]1C(=O)N2[C@@H]1SC(C)(C)[C@@H]2C(=O)O	class 0
CCN1CCC[C@H]1CNC(=O)c1c(OC)ccc(Br)c1OC	class 0

**Q:** Can you look up the reported call for `OCc1ccccc1O` for me?
**A:** class 0

**Q:** Entry `O=C(O)CCCCC(=O)O` please
**A:** class 0

**Q:** Also `CCCCCCC[N+](CC)(CC)CCCCc1ccc(Cl)cc1` ?
**A:** class 1

**Q:** One more compound: `C[C@]12CC[C@@H]3c4ccc(O)cc4CC[C@H]3[C@@H]1C[C@@H](O)[C@@H]2O`
**A:** class 0

**Q:** Next compound up: `C[C@H]1C[C@H]2[C@@H]3CCC4=CC(=O)C=C[C@]4(C)[C@@]3(Cl)[C@@H](O)C[C@]2(C)[C@@]1(O)C(=O)CO`
**A:** class 0

* * *

system: TAB165; experiment: qHTS profiling for inhibitors of Plasmodium falciparum proliferation (AID 504749); further: nearly all actives have a fitted effect of over 60% in size; details: P. falciparum in erythrocytes, SYBR Green DNA, 72 h; series mostly up to 28.7 µM
Results filed as inconclusive are left out. Active and inactive are the calls of the source. Calls follow the shape of the dose curve; as a rule, active = well fitted inhibition curve with a large enough effect; inconclusive = small, poorly fitted or top-dose-only effect; inactive = flat fitted curve, though single readings scatter.
Permitted responses: active, inactive

Use the examples below as a reference point.
molecule	class_assignment
CN=C(NC#N)NCCSCc1csc(N=C(N)N)n1	inactive
CC[N+](CC)(CCNC(=O)C(=O)NCC[N+](CC)(CC)Cc1ccccc1Cl)Cc1ccccc1Cl	active
CCn1cc(C(=O)O)c(=O)c2cnc(N3CCCC3)nc21	inactive
CCOC(=O)OC(C)OC1=C(C(=O)Nc2ccccn2)N(C)S(=O)(=O)c2ccccc21 (stereo not given)	inactive

**Q:** Would you mind telling me which call this test gave `O=C1OC(c2ccc(O)cc2)(c2ccc(O)cc2)c2ccccc21` ?
**A:** inactive

**Q:** And for `NCCC(O)(P(=O)(O)O)P(=O)(O)O` ?
**A:** inactive

**Q:** What do we get for `O=C(O)CCCCC(=O)O` ?
**A:** inactive

**Q:** Now this one: CCCCN1CCCC1C(=O)Nc1c(C)cc(C)cc1C (stereo not given)
**A:** inactive

**Q:** Next up: `COC(=O)[C@@H]1CC2=CC(=O)CC[C@]2(C)[C@@]23O[C@@H]2C[C@@]2(C)[C@@H](CC[C@@]24CCC(=O)O4)[C@H]13`
**A:** inactive

**Q:** Same again, this time with `NCCCC[C@H](N[C@@H](CCc1ccccc1)C(=O)O)C(=O)N1CCC[C@H]1C(=O)O`
**A:** inactive
